# system_tested: Bs-CspB Q59A (Bacillus subtilis, UniProt P32081 1-67, Q59A)
# assay_method_text: tryptophan fluorescence quenching
attribute_measured: Kd (nM)
Form entry: value (nM) — number only.

Reported Kd for TTTTTTT (ssDNA) [dT7] was 2.7
